- System: RPMI-8226
- assay.overview: NCI tumour cell line growth inhibition, 48 h
Calls of active or inactive are those of the source. No stated cut-off is given here; in the data, active = GI50 up to about 1.1 µM and inactive = higher.
The categories you may choose from are Y for active, N for inactive

Would you please look over these solved cases?
{"compound": "COc1ccc(/N=C2\\C(=N/c3ccc(OC)cc3)N(c3ccc(N(C)C)cc3)C(=S)N2c2ccc(OC)cc2)cc1", "classification": "Y"}
{"compound": "O=C(c1ccccn1)c1nc(-c2ccc(Cl)c(Cl)c2)nc2ccc(Cl)cc12", "classification": "N"}
{"compound": "Cc1c2ccncc2c(C)c2c1[nH]c1ccc(Cl)cc12", "classification": "N"}
{"compound": "COC(=O)/C(=C/c1ccc(OC)cc1)NC(=O)c1ccccc1", "classification": "N"}
{"compound": "CC1CC[C@@]2(OC1)OC1C[C@H]3[C@@H]4CC=C5C[C@@H](OC6OC(CO)C(OC7OC(CO)C(O)C(O)C7O)C(O)C6OC6OC(C)C(O)C(O)C6O)CC[C@]5(C)[C@H]4CC[C@]3(C)C1[C@@H]2C (some centres undefined)", "classification": "Y"}
{"compound": "C/C=C1/CN2CCC34c5ccccc5N(C)C23C2CC1C4(C(=O)OC)C(O)O2 (centres undefined)", "classification": "N"}
{"compound": "CNC(=O)OCC1=C(COC(=O)NC)CN(c2ccc(OC)cc2)C1", "classification": "N"}
{"compound": "COc1ccc(OCC(=O)O)c2c1CCCC2=O", "classification": "N"}
{"compound": "O=C1[C@@H]2C(c3ccncc3)=NO[C@@H]2C(=O)N1c1ccc(Cc2ccc(N3C(=O)[C@H]4C(c5ccncc5)=NO[C@H]4C3=O)cc2)cc1", "classification": "N"}
{"compound": "NCCCCN(CCCN)/[N+]([O-])=N\\O", "classification": "N"}

IN: Record request — test call for CC1(C)CC[C@]2(C(=O)O)CC[C@]3(C)C(=CC[C@@H]4[C@@]5(C)CC[C@H](OC6OC(CO)C(O)C(O)C6O)C(C)(C)[C@@H]5CC[C@]43C)[C@@H]2C1 (some centres undefined)
OUT: N

IN: Short answer needed: outcome of this test for "CN(C)CCNC(=O)c1cccc2nc3c(C(=O)NCCN(C)C)cccc3nc12" ?
OUT: N

IN: Outcome logged for "Cc1cc(N(C)c2ccccc2)nc(N(C)c2ccccc2)n1" in this assay:
OUT: N

IN: Write down the call the test reported for this compound. Item: "CO/N=[N+](\[O-])NC(C)C"
OUT: N

IN: What call does the record list for "C=CCN1/C(=C2\SC(=S)N(c3ccc(C)cc3)C2=O)Sc2c1nc[nH]c2=O" ?
OUT: N

IN: Record request — test call for CCOC(=O)C(O)(NC(=O)c1ccccc1F)C(F)(F)F (centres undefined)
OUT: N

IN: For this compound, state the assay outcome: "CCOc1cc2c(cc1O)/C(=N\O)C[C@@H]1[C@@H]2CC[C@]2(C)[C@@H](O)CC[C@@H]12"
OUT: Y

IN: I'd appreciate the recorded outcome for "CNc1cc(N)ccc1C(=O)N1CCC[C@H]1CO" from this test.
OUT: N

IN: // return assay outcome for "Oc1cccc2c(Br)ccnc12"
OUT: Y
